# test-target: farnesyl protein transferase (UniProt Q02293+Q04631)
# assay-explanation: FPT IC50 (inhibition of farnesyl protein transferase, in vitro enzyme assay)
# cond: in vitro enzyme assay per WO 95/10516
// classify: if (IC50 < 5 nM) condition met else condition not met

compound="CON=C1CCC(C(=O)N2CCC([C@H]3c4ncc(Br)cc4CCc4cc(Cl)cc(Br)c43)CC2)CC1 (stereo partly shown)" classification="condition not met"

Input: Decide: IC50 of O=C(C1CCC(O)CC1)N1CCC(C2c3ncc(Br)cc3CCc3cc(Cl)cc(Br)c32)CC1 (stereo not shown) [Compound 68.0] strictly below 5 nM?
Output: condition not met

Input: Could you please tell me whether IC50 recorded for O=C(CC1CCC(=NO)CC1)N1CCC([C@H]2c3ncc(Br)cc3CCc3cc(Cl)cc(Br)c32)CC1 (stereo partly shown) is less than 5 nM?
Output: condition met

Input: Is IC50 of `O=C1CCN(CC(=O)N2CCC([C@H]3c4ncc(Br)cc4CCc4cc(Cl)cc(Br)c43)CC2)CC1` strictly below 5 nM?
Output: condition met

Input: Is IC50 strictly under 5 nM for the entry CC(C)(C)OC(=O)NC1CCC(C(=O)N2CCC(C3c4ncc(Br)cc4CCc4cc(Cl)cc(Br)c43)CC2)CC1 (stereo not shown) ?
Output: condition not met

Input: Given the entry `CON=C1CCN(CC(=O)N2CCC([C@H]3c4ncc(Br)cc4CCc4cc(Cl)cc(Br)c43)CC2)CC1` , would its reported IC50 be below 5 nM?
Output: condition not met

###

As shown below, each of these molecules has a reported pIC50 value.
# test-target: farnesyl protein transferase (UniProt Q02293+Q04631)
# assay-explanation: FPT IC50 (inhibition of farnesyl protein transferase, in vitro enzyme assay)
# cond: in vitro enzyme assay per WO 95/10516
pIC50 is defined as minus the log10 of a concentration measured in mol/L.

Field: example entries. Status: answers known.
molecule="CC(=O)NN=C1CCC(CC(=O)N2CCC([C@H]3c4ncc(Br)cc4CCc4cc(Cl)cc(Br)c43)CC2)CC1 (stereo partly shown)" parameter=pIC50 quantitative_readout=8.37
molecule="NC(=O)NC1CCC(C(=O)N2CCC(C3c4ncc(Br)cc4CCc4cc(Cl)cc(Br)c43)CC2)CC1 (stereo not shown)" parameter=pIC50 quantitative_readout=8.21
molecule=O=C(CN1CCC(=NO)CC1)N1CCC([C@H]2c3ncc(Br)cc3CCc3cc(Cl)cc(Br)c32)CC1 parameter=pIC50 quantitative_readout=8.22
molecule="CC(C)(C)[Si](C)(C)OCCON=C1CCC(CC(=O)N2CCC([C@H]3c4ncc(Br)cc4CCc4cc(Cl)cc(Br)c43)CC2)CC1 (stereo partly shown)" parameter=pIC50 quantitative_readout=7.01
molecule="CC(C)(C)OC(=O)NC1CCCC(C(=O)N2CCC(C3c4ncc(Br)cc4CCc4cc(Cl)cc(Br)c43)CC2)C1 (stereo not shown)" parameter=pIC50 quantitative_readout=6.82
molecule="NC1CCCC(C(=O)N2CCC(C3c4ncc(Br)cc4CCc4cc(Cl)cc(Br)c43)CC2)C1 (stereo not shown)" parameter=pIC50 quantitative_readout=7.86

Consider the additional molecule presented here.
Input: Item under review: `N[C@H]1CC[C@@H](C(=O)N2CCC([C@H]3c4ncc(Br)cc4CCc4cc(Cl)cc(Br)c43)CC2)CC1` . Reported pIC50?
Output: 7.85

###

# test-target: farnesyl protein transferase (UniProt Q02293+Q04631)
# assay-explanation: FPT IC50 (inhibition of farnesyl protein transferase, in vitro enzyme assay)
# cond: in vitro enzyme assay per WO 95/10516
Recorded measurements of IC50, one per entry
Numbers only here, please. The scale is nM.

# annotated cases, reported IC50 shown
compound="O=C1CCCCC1CCC(=O)N1CCC([C@H]2c3ncc(Br)cc3CCc3cc(Cl)cc(Br)c32)CC1 (stereo partly drawn) [Compound 19.0]" parameter=IC50 unit_spec=nM quantitative_readout=10.7
compound="C[C@]1(CCC(=O)N2CCC([C@H]3c4ncc(Br)cc4CCc4cc(Cl)cc(Br)c43)CC2)CCCCC1=O [Compound 20.0]" parameter=IC50 unit_spec=nM quantitative_readout=7

Input: I would be grateful if you could share the reported IC50 for NC(=O)C(=O)NC1CCCC(C(=O)N2CCC(C3c4ncc(Br)cc4CCc4cc(Cl)cc(Br)c43)CC2)C1 (stereo not drawn) [Compound 49.1] .
Output: 15.6

###

# test-target: farnesyl protein transferase (UniProt Q02293+Q04631)
# assay-explanation: FPT IC50 (inhibition of farnesyl protein transferase, in vitro enzyme assay)
# cond: in vitro enzyme assay per WO 95/10516
parameter: IC50 (nM)
Please reply with the bare figure in nM and do not write the unit itself.

// below: answered molecules
molecule="O=C(C1CCC(O)CC1)N1CCC(C2c3ncc(Br)cc3CCc3cc(Cl)cc(Br)c32)CC1 (stereo not shown) [Compound 70.0]" parameter=IC50 quantitative_readout=11
molecule="O=C(C1CCC2(CC1)OCCO2)N1CCC([C@H]2c3ncc(Br)cc3CCc3cc(Cl)cc(Br)c32)CC1 [Compound 34.0]" parameter=IC50 quantitative_readout=10.7

Input: Dear colleague, I am looking for the recorded IC50 of the following molecule: O=C(C=C1CCC2(CC1)OCCO2)N1CCC([C@H]2c3ncc(Br)cc3CCc3cc(Cl)cc(Br)c32)CC1 [Compound 21.0]
Output: 10.7

Input: Please look up its IC50: CC(=O)OC1CCC(C(=O)N2CCC(C3c4ncc(Br)cc4CCc4cc(Cl)cc(Br)c43)CC2)CC1 (stereo not shown) [Compound 69.0]
Output: 7.8

meta.source: patent US6410541B2
